- target.of.assay: nitrogenase (Azotobacter vinelandii, UniProt P00459)
- Construct: the nitrogenase sample was prepared from a culture of Azotobacter vinelandii; endogenous in cells; host or cells: Azotobacter vinelandii culture; French press lysate, 10,000 x g supernatant (crude)
- Sequence (P00459 2-290 limits assumed): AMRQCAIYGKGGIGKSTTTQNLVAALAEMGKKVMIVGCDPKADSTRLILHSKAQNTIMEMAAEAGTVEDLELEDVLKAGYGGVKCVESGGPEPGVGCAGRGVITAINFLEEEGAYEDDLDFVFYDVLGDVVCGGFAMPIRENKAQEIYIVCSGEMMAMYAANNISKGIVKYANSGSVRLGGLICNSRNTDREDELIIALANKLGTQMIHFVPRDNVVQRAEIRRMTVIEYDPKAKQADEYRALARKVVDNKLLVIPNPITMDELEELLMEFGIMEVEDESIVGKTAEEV
- experiment.summary: Chloroplast-coupled evolution of hydrogen by nitrogenase in the absence of substrate
- Assay type: biochemical
- study.conditions: Table II; hydrogen evolution, no nitrogen or acetylene; synthetic carriers 2 mM, ferredoxin 0.2 mM
Where a name gives a salt, the structure may show the parent alone.
Classification field: enter Condition met for ACTIVITY (nmoles H2 /mg protein/min) values not below 20 nmoles H2 /mg protein/min, Condition not met for values below it.

                                    molecule              group
 0                           Cc1c[n+](C)ccn1  Condition not met
 1              CC(=O)NCCc1c[n+](C)ccn1.[I-]  Condition not met
 2                 C[n+]1ccnc(CS(C)(=O)=O)c1  Condition not met
 3              C[n+]1ccnc(CS(=O)(=O)[O-])c1      Condition met
 4  C[n+]1ccnc(C(CC(O)CO)CC(O)CO)c1 (centres unmarked)  Condition not met
 5  C[n+]1ccnc(CCC(O)CO)c1.[I-] (centres unmarked)      Condition met
 6  O=C(O)CC[n+]1ccncc1.[Br-] [Compound 800, 1-(2-Carboxyethyl)pyrazinium bromide]  Condition not met
 7                        C[n+]1ccnc2ccccc21  Condition not met
 8  CCC(=O)Cc1c[n+](C)ccn1 [Compound 3500, 1-Methyl-3-(2-oxybutyl)pyrazinium iodide]  Condition not met
 9  C[n+]1ccnc(C(CCCS(=O)(=O)[O-])CCCS(=O)(=O)O)c1 (centres unmarked) [Compound 1800, sodium salt]      Condition met
10           C[n+]1ccnc(CCCCS(=O)(=O)[O-])c1      Condition met
11             Cc1cnc(CS(=O)(=O)[O-])c[n+]1C      Condition met
12                     COC(=O)c1c[n+](C)ccn1  Condition not met
13    C[n+]1ccnc(C(C)(C)[N+](=O)[O-])c1.[I-]  Condition not met
14                      C[n+]1ccnc(C(=O)O)c1  Condition not met
15                          CCc1c[n+](C)ccn1  Condition not met
16             C[n+]1ccnc(CCS(=O)(=O)[O-])c1      Condition met
17  CC(c1c[n+](C)ccn1)S(=O)(=O)[O-] (centres unmarked)      Condition met
18                        CCCCc1c[n+](C)ccn1  Condition not met
19               C[n+]1ccnc(CCC(=O)O)c1.[I-]  Condition not met
20  C[n+]1ccnc(CC(C(O)CO)S(=O)(=O)[O-])c1 (centres unmarked)  Condition not met
21    CC(O)c1c[n+](C)ccn1 (centres unmarked)  Condition not met
22                         C=Cc1c[n+](C)ccn1  Condition not met
23              COC(=O)CCc1c[n+](C)ccn1.[I-]  Condition not met

====

- experiment.summary: Polarographic half-wave potential (first wave reduction)
- Assay type: physicochemical
- study.conditions: 0.1 M phosphate buffer pH 7.55, 25° C.
Where a name gives a salt, the structure may show the parent alone.
measured.parameter: E1/2 vs. SCE (mV)

>>> print(df.to_string())
                                   molecule  measured_parameter  endpoint_result
0  CCCC(c1c[n+](C)ccn1)S(=O)(=O)[O-] (centres unmarked)   E1/2 vs. SCE (mV)             -699
1  C[n+]1ccnc(C(O)CO)c1.[I-] (centres unmarked)   E1/2 vs. SCE (mV)             -704
2  C[n+]1ccnc(CCC(O)CO)c1.[I-] (centres unmarked)   E1/2 vs. SCE (mV)             -683
3                    C[n+]1ccnc(CCC(N)=O)c1   E1/2 vs. SCE (mV)             -685
4  C[n+]1ccnc(C(CCCS(=O)(=O)[O-])CCCS(=O)(=O)O)c1 (centres unmarked) [Compound 1800, sodium salt]   E1/2 vs. SCE (mV)             -683
5  C[n+]1ccnc(CC(C(O)CO)S(=O)(=O)[O-])c1 (centres unmarked)   E1/2 vs. SCE (mV)             -720
6                          CCc1c[n+](C)ccn1   E1/2 vs. SCE (mV)             -700
7  CCC(Cc1c[n+](C)ccn1)S(=O)(=O)[O-] (centres unmarked)   E1/2 vs. SCE (mV)             -710

====

- target.of.assay: nitrogenase (Azotobacter vinelandii, UniProt P00459)
- Construct: the nitrogenase sample was prepared from a culture of Azotobacter vinelandii; endogenous in cells; host or cells: Azotobacter vinelandii culture; French press lysate, 10,000 x g supernatant (crude)
- experiment.summary: Chloroplast-coupled reduction of acetylene to ethylene by nitrogenase (electron carrier bioassay of Benemann)
- Type: biochemical
- study.conditions: Table IV; acetylene reduction
In plain terms, low % FERREDOXIN ACTIVITY, meaning strictly below 30%, gives Satisfied, and everything else gives Not satisfied.

In [3]: df
Out[3]:
                                    compound          group
 0  Cc1c[n+](CCCS(=O)(=O)[O-])ccn1 [Compound 600]  Not satisfied
 1   Cc1c[n+](C)cc(CO)n1.[I-] [Compound 400]      Satisfied
 2           Cc1c[n+](C)ccn1 [Compound 4300]      Satisfied
 3      C[n+]1ccnc(C(N)=O)c1 [Compound 4600]      Satisfied
 4  CC(O)c1c[n+](C)ccn1 (centres unmarked) [Compound 200]      Satisfied
 5  C[n+]1ccnc(CCCCS(=O)(=O)[O-])c1 [Compound 1801]  Not satisfied
 6     C[n+]1ccnc(CCO)c1.[I-] [Compound 300]  Not satisfied
 7  C[n+]1ccnc(CC(C(O)CO)S(=O)(=O)[O-])c1 (centres unmarked) [Compound 4100]  Not satisfied
 8  Cc1cnc(CS(=O)(=O)[O-])c[n+]1C [Compound 3200]  Not satisfied
 9  CCC(O)Cc1c[n+](C)ccn1.[I-] (centres unmarked) [Compound 3400]      Satisfied
10          CCc1c[n+](C)ccn1 [Compound 4900]      Satisfied

====

Readings of ACTIVITY RELATIVE TO FERREDOXIN (%) for the listed molecules
- target.of.assay: nitrogenase (Azotobacter vinelandii, UniProt P00459)
- Construct: the nitrogenase sample was prepared from a culture of Azotobacter vinelandii; endogenous in cells; host or cells: Azotobacter vinelandii culture; French press lysate, 10,000 x g supernatant (crude)
- experiment.summary: Chloroplast-coupled reduction of acetylene to ethylene by nitrogenase (electron carrier bioassay of Benemann)
- Format: biochemical
- study.conditions: Table I; acetylene reduction to ethylene
Counter-ions that a name gives are not always drawn.
measured.parameter: ACTIVITY RELATIVE TO FERREDOXIN (%)

In [3]: df
Out[3]:
                                    molecule                           target_of_assay  endpoint_result
 0                     COC(=O)c1c[n+](C)ccn1  nitrogenase (Azotobacter vinelandii, UniProt P00459)                0
 1             C[n+]1ccnc(CCS(=O)(=O)[O-])c1  nitrogenase (Azotobacter vinelandii, UniProt P00459)               98
 2  C[n+]1ccnc(CCC(O)CO)c1.[I-] (stereo not drawn)  nitrogenase (Azotobacter vinelandii, UniProt P00459)               41
 3                          CCc1c[n+](C)ccn1  nitrogenase (Azotobacter vinelandii, UniProt P00459)                2
 4         Cc1c[n+](CCCS(=O)(=O)[O-])c(C)cn1  nitrogenase (Azotobacter vinelandii, UniProt P00459)              104
 5                    C[n+]1ccnc(CCC(N)=O)c1  nitrogenase (Azotobacter vinelandii, UniProt P00459)               28
 6                      C[n+]1ccnc(C(N)=O)c1  nitrogenase (Azotobacter vinelandii, UniProt P00459)                0
 7  O=C(O)CC[n+]1ccncc1.[Br-] [Compound 800, 1-(2-Carboxyethyl)pyrazinium bromide]  nitrogenase (Azotobacter vinelandii, UniProt P00459)               50
 8                 C[n+]1ccnc(CS(C)(=O)=O)c1  nitrogenase (Azotobacter vinelandii, UniProt P00459)                5
 9               C[n+]1ccnc(S(=O)(=O)[O-])c1  nitrogenase (Azotobacter vinelandii, UniProt P00459)               61
10              COC(=O)CCc1c[n+](C)ccn1.[I-]  nitrogenase (Azotobacter vinelandii, UniProt P00459)               22
11            Cc1c[n+](CCCS(=O)(=O)[O-])ccn1  nitrogenase (Azotobacter vinelandii, UniProt P00459)               64
12  CCC(Cc1c[n+](C)ccn1)S(=O)(=O)[O-] (stereo not drawn)  nitrogenase (Azotobacter vinelandii, UniProt P00459)               95
13  CCC(=O)Cc1c[n+](C)ccn1 [Compound 3500, 1-Methyl-3-(2-oxybutyl)pyrazinium iodide]  nitrogenase (Azotobacter vinelandii, UniProt P00459)                5
14           Cc1c[n+](C)cc(CS(=O)(=O)[O-])n1  nitrogenase (Azotobacter vinelandii, UniProt P00459)               99
15                           Cc1c[n+](C)ccn1  nitrogenase (Azotobacter vinelandii, UniProt P00459)                5
16  CC(c1c[n+](C)ccn1)S(=O)(=O)[O-] (stereo not drawn)  nitrogenase (Azotobacter vinelandii, UniProt P00459)              105
17    CC(O)c1c[n+](C)ccn1 (stereo not drawn)  nitrogenase (Azotobacter vinelandii, UniProt P00459)               17
18  C[n+]1ccnc(C(CC(O)CO)CC(O)CO)c1 (stereo not drawn)  nitrogenase (Azotobacter vinelandii, UniProt P00459)               33
19              C[n+]1ccnc(CS(=O)(=O)[O-])c1  nitrogenase (Azotobacter vinelandii, UniProt P00459)               61
20  C[n+]1ccnc(C(CCCS(=O)(=O)[O-])CCCS(=O)(=O)O)c1 (stereo not drawn) [Compound 1800, sodium salt]  nitrogenase (Azotobacter vinelandii, UniProt P00459)              124
